Assay: Solubility of Compound 1 in 19 types of solvents at room temperature
Type: physicochemical
Settings: organic solvent or mixture, thermodynamic from solid; solvent Dimethylformamide, 200 μL
assay.metric: solubility

// sample O=C(O)[C@H]1C2CCC(CC2)[C@@H]1Nc1nc(-c2n[nH]c3ncc(F)cc23)nc(C2CC2)c1F [Compound 1] , its solubility was > 50 mg/mL

----------
Assay: Solubility of Compound 1 in 19 types of solvents at room temperature
Type: physicochemical
Settings: organic solvent or mixture, thermodynamic from solid; solvent Dioxane, 3000 μL, not dissolved completely at 50° C.
assay.metric: solubility

// sample O=C(O)[C@H]1C2CCC(CC2)[C@@H]1Nc1nc(-c2n[nH]c3ncc(F)cc23)nc(C2CC2)c1F [Compound 1] , its solubility was < 3300 µg/mL

----------
Assay: Solubility of Compound 1 in 19 types of solvents at room temperature
Assay type: physicochemical
Conditions: organic solvent or mixture, thermodynamic from solid; solvent Dimethylsulfoxide, 200 μL
assay.metric: solubility

// sample `O=C(O)[C@H]1C2CCC(CC2)[C@@H]1Nc1nc(-c2n[nH]c3ncc(F)cc23)nc(C2CC2)c1F` , its solubility was > 50 mg/mL

----------
Test: Solubility of Compound 1 in 19 types of solvents at room temperature
Format: physicochemical
Settings: organic solvent or mixture, thermodynamic from solid; solvent Methyl tert-butyl ether, 3000 μL, not dissolved completely at 50° C.
assay.metric: solubility

// sample O=C(O)[C@H]1C2CCC(CC2)[C@@H]1Nc1nc(-c2n[nH]c3ncc(F)cc23)nc(C2CC2)c1F [Compound 1] , its solubility was < 3300 µg/mL

----------
Test: Solubility of Compound 1 in 19 types of solvents at room temperature
Assay type: physicochemical
Conditions: organic solvent or mixture, thermodynamic from solid; solvent Ethyl acetate, 3000 μL, not dissolved completely at 50° C.
assay.metric: solubility

// sample `O=C(O)[C@H]1C2CCC(CC2)[C@@H]1Nc1nc(-c2n[nH]c3ncc(F)cc23)nc(C2CC2)c1F` , its solubility was < 3300 µg/mL

meta.source: patent US12252487B2
